Exercise: state measured melting point for each of the compounds provided.
Counter-ions that a name gives are not always drawn.

COMPOUND	melting point
COc1ccc(NS(=O)(=O)c2cc(C)cc(C(C)(C)C)c2O)cc1	130 to 134 °C

Need melting point for each of these compounds.
1. CCC(C)c1cc(C(C)(C)C)c(O)c(S(=O)(=O)Nc2ccc([N+](=O)[O-])cc2Cl)c1 (stereo not shown) (as salt: Na)
2. CC(C)(C)c1cc(C(C)(C)C)c(O)c(S(=O)(=O)Nc2ccc([N+](=O)[O-])cc2Cl)c1
3. Cc1cc(C(C)(C)C)c(O)c(S(=O)(=O)Nc2ccc([N+](=O)[O-])cc2Cl)c1
4. Cc1cc(C(C)(C)C)c(O)c(S(=O)(=O)Nc2ccc(I)cc2)c1
5. Cc1cc(C(C)(C)C)c(O)c(S(=O)(=O)Nc2ccc(C#N)cc2Cl)c1
6. Cc1cc(C(C)(C)C)c(O)c(S(=O)(=O)Nc2ccc(C#N)c(C(F)(F)F)c2)c1

1: 106 to 108 °C; 2: 158 to 161 °C; 3: 239 to 243 °C; 4: 184 to 185 °C; 5: 101 to 105 °C; 6: 159 to 162 °C
